target: BRM (Homo sapiens, UniProt P51531); construct: made in house; host or cells: High Five insect cells; test: ATPase catalytic activity of BRM, ADP-Glo in vitro biochemical assay; settings: ADP-Glo ATPase assay, 30 nM BRM, 400 μM ATP
Sequence (P51531 whole entry): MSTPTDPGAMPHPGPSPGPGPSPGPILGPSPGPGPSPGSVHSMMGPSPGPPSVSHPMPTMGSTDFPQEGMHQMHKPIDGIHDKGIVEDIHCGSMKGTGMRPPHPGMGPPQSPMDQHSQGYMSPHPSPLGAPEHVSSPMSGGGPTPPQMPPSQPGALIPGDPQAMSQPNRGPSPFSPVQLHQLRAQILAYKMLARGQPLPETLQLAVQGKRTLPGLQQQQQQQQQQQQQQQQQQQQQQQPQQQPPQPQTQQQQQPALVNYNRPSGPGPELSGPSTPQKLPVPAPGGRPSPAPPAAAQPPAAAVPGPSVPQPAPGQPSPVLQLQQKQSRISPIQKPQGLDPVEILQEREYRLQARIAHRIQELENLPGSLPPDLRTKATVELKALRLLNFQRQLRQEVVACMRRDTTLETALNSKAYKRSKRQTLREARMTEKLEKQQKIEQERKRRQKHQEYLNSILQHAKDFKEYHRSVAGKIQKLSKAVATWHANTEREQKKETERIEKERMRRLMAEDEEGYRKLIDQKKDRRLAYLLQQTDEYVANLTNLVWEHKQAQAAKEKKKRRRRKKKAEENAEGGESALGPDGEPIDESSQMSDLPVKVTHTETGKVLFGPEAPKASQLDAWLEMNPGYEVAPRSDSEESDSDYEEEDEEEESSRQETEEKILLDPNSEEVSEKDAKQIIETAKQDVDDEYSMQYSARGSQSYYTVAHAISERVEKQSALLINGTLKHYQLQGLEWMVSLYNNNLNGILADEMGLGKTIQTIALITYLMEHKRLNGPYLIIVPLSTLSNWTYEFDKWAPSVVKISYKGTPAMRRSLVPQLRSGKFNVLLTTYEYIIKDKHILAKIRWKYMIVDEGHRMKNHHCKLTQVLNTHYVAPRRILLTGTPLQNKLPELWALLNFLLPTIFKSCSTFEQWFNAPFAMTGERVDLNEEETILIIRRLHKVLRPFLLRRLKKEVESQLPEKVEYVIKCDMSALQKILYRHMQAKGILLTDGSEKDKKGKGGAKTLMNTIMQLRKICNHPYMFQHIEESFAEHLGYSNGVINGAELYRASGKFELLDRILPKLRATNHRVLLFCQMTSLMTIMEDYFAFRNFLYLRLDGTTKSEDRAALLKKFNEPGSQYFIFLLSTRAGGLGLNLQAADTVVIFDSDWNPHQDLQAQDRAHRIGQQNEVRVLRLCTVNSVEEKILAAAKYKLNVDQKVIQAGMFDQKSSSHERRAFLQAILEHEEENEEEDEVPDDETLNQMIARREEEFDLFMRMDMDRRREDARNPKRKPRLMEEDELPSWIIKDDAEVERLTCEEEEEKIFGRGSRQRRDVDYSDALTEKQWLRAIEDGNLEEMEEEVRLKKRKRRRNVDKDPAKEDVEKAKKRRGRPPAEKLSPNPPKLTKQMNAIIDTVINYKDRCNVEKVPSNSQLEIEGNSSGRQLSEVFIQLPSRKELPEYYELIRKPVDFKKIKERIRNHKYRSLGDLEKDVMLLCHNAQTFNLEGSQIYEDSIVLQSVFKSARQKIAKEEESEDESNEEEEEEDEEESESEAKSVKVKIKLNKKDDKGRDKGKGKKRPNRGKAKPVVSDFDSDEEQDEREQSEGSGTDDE

| compound | IC50, nM |
| --- | --- |
| COCc1ccc2c(c1F)N(c1ccc3cnc(CNC(=O)c4ccc5c(c4)S(=O)(=O)CCOC5)cc3n1)CCC2 [Compound 711] | 9.3 |
| C[C@@H]1C[C@@H]1c1ccc2c(n1)N(c1ccc3cnc(CNC(=O)c4ccc5c(c4)S(=O)(=O)CCOC5)cc3n1)CCO2 [Compound 832] | 15.5 |
| COC1CN(c2cccc(-c3ccc4cnc(CNC(=O)c5ccc6c(c5)S(=O)(=O)CCOC6)cc4n3)n2)C1 [Compound 228] | 20.5 |
